Where do the numbers come from? From the SangsterLogP compilation.

Assay: method code SF-AS, from DOI: 10.1248/cpb.39.1736, PMID: 1777927
MEASURED_QUANTITY: logP

smiles_code=O=C(/C=C/c1ccc(O)c(O)c1)NCc1ccccc1 value=2.48
smiles_code=CCCCCCNC(=O)c1ccc(O)c(O)c1 value=2.71
smiles_code=CC(=O)c1ccc2cc(O)c(O)cc2c1 value=2.32
smiles_code=CCOc1ccc2cc(O)c(O)cc2c1 value=2.7
smiles_code=CCc1ccc2cc(O)c(O)cc2c1 value=3.25
smiles_code=O=C(/C=C/c1ccc(O)c(O)c1)CCCCCO value=1.67
smiles_code=CCCCCCNC(=O)/C=C/Oc1ccc(O)c(O)c1 value=3.36
